The values you see were collected from ChEMBL document CHEMBL1795245.

Target: Amine oxidase [flavin-containing] A (Homo sapiens, UniProt P21397)
Sequence (P21397 whole entry): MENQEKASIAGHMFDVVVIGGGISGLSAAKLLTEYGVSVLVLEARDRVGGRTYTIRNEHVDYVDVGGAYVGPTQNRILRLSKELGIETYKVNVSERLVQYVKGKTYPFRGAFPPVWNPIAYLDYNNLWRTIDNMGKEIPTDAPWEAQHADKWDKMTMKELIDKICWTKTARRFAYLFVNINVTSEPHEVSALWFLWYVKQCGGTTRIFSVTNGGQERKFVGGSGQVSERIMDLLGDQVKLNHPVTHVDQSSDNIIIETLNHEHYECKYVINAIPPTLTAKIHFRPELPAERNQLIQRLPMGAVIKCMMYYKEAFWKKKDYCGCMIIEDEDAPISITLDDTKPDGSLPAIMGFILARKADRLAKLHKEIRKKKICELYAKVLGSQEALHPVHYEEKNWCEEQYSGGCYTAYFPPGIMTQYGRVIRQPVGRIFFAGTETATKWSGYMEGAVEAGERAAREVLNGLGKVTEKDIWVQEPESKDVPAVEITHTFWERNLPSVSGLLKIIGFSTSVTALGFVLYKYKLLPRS
Kindly state Ki for each of the entries shown.
Write it as a number; the unit nM goes unstated.

## Task Suppose we examine the molecule Cc1ccccc1NC(=S)N1N=C(c2ccccc2)CC1c1ccccc1O (stereo not given) ; what Ki value has been reported?
## Result 250

## Task I would be grateful if you could share the reported Ki for COc1ccccc1NC(=S)N1N=C(c2ccccc2)CC1c1ccc(O)cc1 (stereo not given) .
## Result 2150

## Task For the molecule Cc1ccc(C2CC(c3ccccc3)=NN2C(=N)N)cc1 (stereo not given) , what Ki is on record?
## Result 400

## Task Given the entry Cc1ccc(NC(=S)N2N=C(c3ccccc3)CC2c2ccccc2O)cc1 (stereo not given) , report its measured Ki.
## Result 290

## Task May I ask what Ki has been recorded for NC(=O)N1N=C(c2ccccc2)CC1c1ccc(Cl)cc1 (stereo not given) ?
## Result 300

----------
Sequence of the target: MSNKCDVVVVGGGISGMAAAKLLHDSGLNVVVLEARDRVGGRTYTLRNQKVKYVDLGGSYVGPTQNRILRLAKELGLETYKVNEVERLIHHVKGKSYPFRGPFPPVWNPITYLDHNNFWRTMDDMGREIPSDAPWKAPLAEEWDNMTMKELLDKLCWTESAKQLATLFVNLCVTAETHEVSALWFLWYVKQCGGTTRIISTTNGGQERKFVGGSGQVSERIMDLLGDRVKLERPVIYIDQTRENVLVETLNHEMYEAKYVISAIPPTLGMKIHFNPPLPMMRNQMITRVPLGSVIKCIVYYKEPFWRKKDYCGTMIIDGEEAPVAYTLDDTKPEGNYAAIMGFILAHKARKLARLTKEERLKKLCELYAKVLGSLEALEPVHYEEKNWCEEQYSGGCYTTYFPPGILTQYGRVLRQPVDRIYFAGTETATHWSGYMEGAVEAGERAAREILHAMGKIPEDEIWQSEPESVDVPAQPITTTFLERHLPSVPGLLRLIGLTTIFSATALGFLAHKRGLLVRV
So basically, if Ki comes in under 60 µM it's TRUE, and if it's 60 µM or more it's FALSE.

## Task Item Cc1cccc(NC(=S)N2N=C(c3ccccc3)CC2c2ccccc2O)c1 (stereo not given) : Ki beneath 60 µM, strictly?
## Result FALSE

## Task Check if Ki falls below 60 µM for Cc1ccccc1NC(=S)N1N=C(c2ccccc2)CC1c1ccccc1O (stereo not given) .
## Result TRUE

## Task Find out if reported Ki for NC(=S)N1N=C(c2ccccc2)CC1c1ccncc1 (stereo not given) is less than 60 µM
## Result TRUE

## Task Confirm or reject: Ki of N=C(N)N1N=C(c2ccccc2)CC1c1ccncc1 (stereo not given) lies strictly below 60 µM
## Result TRUE

## Task Please indicate whether the reported Ki of COc1ccc(NC(=S)N2N=C(c3ccccc3)CC2c2ccc(O)cc2)cc1 (stereo not given) is strictly below 60 µM.
## Result FALSE

## Task Answer whether the molecule N=C(N)N1N=C(c2ccccc2)CC1c1ccc(Cl)cc1 (stereo not given) has Ki strictly less than 60 µM
## Result TRUE

## Task Confirm or reject: Ki of COc1ccccc1NC(=S)N1N=C(c2ccccc2)CC1c1ccc(O)cc1 (stereo not given) lies strictly below 60 µM
## Result FALSE

## Task Is 60 µM strictly greater than the molecule's reported Ki? molecule: Cc1ccc(NC(=S)N2N=C(c3ccccc3)CC2c2ccccc2O)cc1 (stereo not given)
## Result FALSE

## Task Please state whether Ki is below 60 µM for Cc1ccc(C2CC(c3ccccc3)=NN2C(=N)N)cc1 (stereo not given)
## Result TRUE
